TLR7 activity rel. to assay max values by entry
# target desc: human TLR7 (Homo sapiens)
# Construct: host or cells: HEK blue hTLR7 reporter cells
# experiment notes: HEK-Blue hTLR7 SEAP reporter assay
# Assay type: cell-based
# setup conditions: average maximal SEAP secretion relative to maximum secretion observed in the assay

Reference set (6 entries):
compound	endpoint	result
CCCCc1nc2c(N)nc3ccccc3c2n1CC1CCN(C(=O)OC(C)(C)C)CC1	TLR7 activity rel. to assay max	86% ± 9%
CCCCc1nc2c(N)nc3ccccc3c2n1CCOCCOCCO	TLR7 activity rel. to assay max	84% ± 5%
CCCCc1nc2c(N)nc3ccccc3c2n1CC1CCNCC1	TLR7 activity rel. to assay max	81% ± 13%
CCCCc1nc2c(N)nc3ccccc3c2n1CCC1CCN(C(=O)CN(C)CC(=O)N(C)C2CC(C)OC(OC3C(C)C(OC4CC(C)(OC)C(O)C(C)O4)C(C)C(=O)OC(CC)C(C)(O)C(O)C(C)N(C)CC(C)CC3(C)O)C2O)CC1 (stereo not shown)	TLR7 activity rel. to assay max	41% ± 8%
CCOCc1nc2c(N)nc3ccccc3c2n1CC(C)(C)O [RSQ, Resiquimod, reference compound]	TLR7 activity rel. to assay max	95% ± 5%
CCCCc1nc2c(N)nc3ccccc3c2n1CCOCCOCCN	TLR7 activity rel. to assay max	62% ± 9%

Now take the following compound into account.
Exercise: State its TLR7 activity rel. to assay max on human TLR7 (Homo sapiens): CCCCc1nc2c(N)nc3ccccc3c2n1CCC1CCNCC1
Solution: 58% ± 16%

###

# target desc: human TLR7 (Homo sapiens, UniProt Q9NYK1)
# Construct: host or cells: HEK blue hTLR7 reporter cells
# experiment notes: HEK-Blue hTLR7 SEAP reporter assay
# Type: cell-based
# setup conditions: 95% CI; HEK-blue human TLR7, 24 h; read-out: TLR7 EC50
pEC50: −log10 of the molar value.
Known pEC50 of a selection of molecules

Consider the worked cases shown below.
molecule	result
CCCCc1nc2c(N)nc3ccccc3c2n1CC1CCN(C(=O)OC(C)(C)C)CC1 [A2-boc]	6.33 to 6.64
CCCCc1nc2c(N)nc3ccccc3c2n1CCOCCOCCO [A4]	5.68 to 5.82

We next turn to a different molecule, shown below.
Exercise: Lab note: need pEC50 with human TLR7 (Homo sapiens, UniProt Q9NYK1) for entry CC(C)Cn1cnc2c(N)nc3ccccc3c21 [IMQ, Imiquimod] , please look it up.
Solution: 5.08 to 5.28

###

# experiment notes: Compound concentrations in organs and blood after 3, 6, 12 µmol/kg s.c. (Figure 4A)
# Assay type: in vivo, C57BL/6 mice
# setup conditions: female, C57BL/6, mouse, whole blood (peripheral, tail), sc, 1 h post application, whole blood
endpoint: concentration at 1 h (nM)
Kindly answer with a numeric value in nM, unit omitted.

compound	unit of measure	concentration at 1 h
CCOCc1nc2c(N)nc3ccccc3c2n1CC(C)(C)O [RSQ, Resiquimod, reference compound]	nM	175
CCCCc1nc2c(N)nc3ccccc3c2n1CCC1CCN(C(=O)CN(C)CC(=O)N(C)C2CC(C)OC(OC3C(C)C(OC4CC(C)(OC)C(O)C(C)O4)C(C)C(=O)OC(CC)C(C)(O)C(O)C(C)N(C)CC(C)CC3(C)O)C2O)CC1 (stereo not drawn)	nM	696

From here, focus on the item given below.
Exercise: Reported concentration at 1 h, compound CCCCc1nc2c(N)nc3ccccc3c2n1CCC1CCNCC1 : ____
Solution: 1560

###

# target desc: human TLR7 (Homo sapiens)
# Construct: host or cells: HEK blue hTLR7 reporter cells
# Sequence (Q9NYK1 27-1049): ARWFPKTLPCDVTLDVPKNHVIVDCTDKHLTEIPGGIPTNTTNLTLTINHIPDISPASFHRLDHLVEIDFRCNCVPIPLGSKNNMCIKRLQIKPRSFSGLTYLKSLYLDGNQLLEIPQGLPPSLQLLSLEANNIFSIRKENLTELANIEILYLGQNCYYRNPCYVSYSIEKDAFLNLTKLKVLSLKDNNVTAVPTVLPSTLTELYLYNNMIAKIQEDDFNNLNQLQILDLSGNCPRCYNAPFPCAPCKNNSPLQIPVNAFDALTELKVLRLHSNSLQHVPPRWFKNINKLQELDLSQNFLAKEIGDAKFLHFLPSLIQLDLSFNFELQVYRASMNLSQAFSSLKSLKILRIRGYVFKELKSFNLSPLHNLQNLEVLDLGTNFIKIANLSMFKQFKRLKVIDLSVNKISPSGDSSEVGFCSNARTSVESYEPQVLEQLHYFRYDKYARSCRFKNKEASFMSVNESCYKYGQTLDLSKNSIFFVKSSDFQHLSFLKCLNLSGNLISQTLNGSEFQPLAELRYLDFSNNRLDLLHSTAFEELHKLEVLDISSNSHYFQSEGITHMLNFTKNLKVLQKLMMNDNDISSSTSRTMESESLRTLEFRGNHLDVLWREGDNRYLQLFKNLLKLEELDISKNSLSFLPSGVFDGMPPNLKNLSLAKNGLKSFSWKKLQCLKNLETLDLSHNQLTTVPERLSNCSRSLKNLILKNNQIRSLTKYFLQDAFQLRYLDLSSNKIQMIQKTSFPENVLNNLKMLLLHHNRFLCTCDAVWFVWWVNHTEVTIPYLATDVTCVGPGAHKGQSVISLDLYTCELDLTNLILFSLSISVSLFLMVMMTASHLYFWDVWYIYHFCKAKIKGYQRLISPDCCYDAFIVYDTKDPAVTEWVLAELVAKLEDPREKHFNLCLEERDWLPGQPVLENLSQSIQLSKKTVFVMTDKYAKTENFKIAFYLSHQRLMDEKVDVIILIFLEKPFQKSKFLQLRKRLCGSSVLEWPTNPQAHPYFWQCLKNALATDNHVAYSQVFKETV
# experiment notes: HEK-Blue hTLR7 SEAP reporter assay
# Type: cell-based
# setup conditions: average maximal SEAP secretion relative to maximum secretion observed in the assay
TLR7 activity rel. to assay max values by entry

compound	target desc	TLR7 activity rel. to assay max
CC(C)Cn1cnc2c(N)nc3ccccc3c21 [IMQ, Imiquimod]	human TLR7 (Homo sapiens)	35% ± 7%
CCCCc1nc2c(N)nc3ccccc3c2n1CC1CCN(C(=O)CN(C)CC(=O)N(C)[C@H]2C[C@@H](C)O[C@@H](O[C@@H]3[C@@H](C)[C@H](O[C@H]4C[C@@](C)(OC)[C@@H](O)[C@H](C)O4)[C@@H](C)C(=O)O[C@H](CC)[C@@](C)(O)[C@H](O)[C@@H](C)N(C)C[C@H](C)C[C@@]3(C)O)[C@@H]2O)CC1 [A2-mac]	human TLR7 (Homo sapiens)	63% ± 9%

Exercise: Fill blank: measured TLR7 activity rel. to assay max of the compound CCCCc1nc2c(N)nc3ccccc3c2n1CCC1CCN(C(=O)OC(C)(C)C)CC1 [A1-boc] is ____.
Solution: 55% ± 7%

###

# target desc: human TLR7 (Homo sapiens)
# Construct: host or cells: HEK blue hTLR7 reporter cells
# Sequence (Q9NYK1 27-1049): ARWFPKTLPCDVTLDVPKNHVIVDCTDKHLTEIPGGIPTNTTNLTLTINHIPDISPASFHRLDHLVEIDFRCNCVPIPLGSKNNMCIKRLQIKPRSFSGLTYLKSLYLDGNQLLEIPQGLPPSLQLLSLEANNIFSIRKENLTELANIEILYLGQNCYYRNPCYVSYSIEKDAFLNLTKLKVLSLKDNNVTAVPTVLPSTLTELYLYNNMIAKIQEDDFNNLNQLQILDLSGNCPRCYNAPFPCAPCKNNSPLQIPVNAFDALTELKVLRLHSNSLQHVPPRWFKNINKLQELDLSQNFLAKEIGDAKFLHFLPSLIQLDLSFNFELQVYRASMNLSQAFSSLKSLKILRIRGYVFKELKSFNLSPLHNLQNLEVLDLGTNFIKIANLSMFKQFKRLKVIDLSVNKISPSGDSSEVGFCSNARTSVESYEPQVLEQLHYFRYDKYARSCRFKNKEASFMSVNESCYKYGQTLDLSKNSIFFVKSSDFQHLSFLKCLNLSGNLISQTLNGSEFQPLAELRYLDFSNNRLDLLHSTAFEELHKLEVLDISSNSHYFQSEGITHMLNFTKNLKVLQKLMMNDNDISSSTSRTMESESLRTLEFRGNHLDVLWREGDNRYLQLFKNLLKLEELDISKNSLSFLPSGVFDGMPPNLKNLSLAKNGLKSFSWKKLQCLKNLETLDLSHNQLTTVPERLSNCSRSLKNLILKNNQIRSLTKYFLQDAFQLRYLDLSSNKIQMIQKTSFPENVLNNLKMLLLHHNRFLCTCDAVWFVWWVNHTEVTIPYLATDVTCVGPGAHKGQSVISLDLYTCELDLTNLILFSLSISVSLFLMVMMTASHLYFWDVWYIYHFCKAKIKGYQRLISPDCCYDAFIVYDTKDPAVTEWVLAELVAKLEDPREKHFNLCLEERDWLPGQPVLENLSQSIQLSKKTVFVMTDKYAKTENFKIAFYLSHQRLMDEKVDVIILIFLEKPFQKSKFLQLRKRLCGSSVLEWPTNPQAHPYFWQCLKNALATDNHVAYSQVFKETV
# experiment notes: HEK-Blue hTLR7 SEAP reporter assay
# Assay type: cell-based
# setup conditions: 95% CI; HEK-blue human TLR7, 24 h; read-out: TLR7 EC50
endpoint: EC50

As a guide, the following entries are already answered.
compound	target desc	EC50
CCCCc1nc2c(N)nc3ccccc3c2n1CCC1CCNCC1	human TLR7 (Homo sapiens)	96 to 220 nM
CCCCc1nc2c(N)nc3ccccc3c2n1CCOCCOCCN	human TLR7 (Homo sapiens)	1000 to 1500 nM
CCCCc1nc2c(N)nc3ccccc3c2n1CC1CCN(C(=O)CN(C)CC(=O)N(C)[C@H]2C[C@@H](C)O[C@@H](O[C@@H]3[C@@H](C)[C@H](O[C@H]4C[C@@](C)(OC)[C@@H](O)[C@H](C)O4)[C@@H](C)C(=O)O[C@H](CC)[C@@](C)(O)[C@H](O)[C@@H](C)N(C)C[C@H](C)C[C@@]3(C)O)[C@@H]2O)CC1	human TLR7 (Homo sapiens)	1500 to 2000 nM

Exercise: What value of EC50 on human TLR7 (Homo sapiens) does CCCCc1nc2c(N)nc3ccccc3c2n1CCC1CCN(C(=O)OC(C)(C)C)CC1 have?
Solution: 390 to 690 nM

Exercise: Param readout= EC50; system= human TLR7 (Homo sapiens); entry= CCCCc1nc2c(N)nc3ccccc3c2n1CCC1CCN(C(=O)CN(C)CC(=O)N(C)C2CC(C)OC(OC3C(C)C(OC4CC(C)(OC)C(O)C(C)O4)C(C)C(=O)OC(CC)C(C)(O)C(O)C(C)N(C)CC(C)CC3(C)O)C2O)CC1 (stereo not drawn) ; returns value.
Solution: 400 to 740 nM

Exercise: Give the reported EC50 for CCCCc1nc2c(N)nc3ccccc3c2n1CC1CCNCC1 (system: human TLR7 (Homo sapiens)).
Solution: 75 to 120 nM
